Please provide measured TGI for the entries that follow.
# Tested on: ACHN renal
# test name: NCI tumour cell line growth inhibition, 48 h

Input: Specify TGI for `CN1CCCNCCN(CCc2ccccn2)CCCN(C)CC1` and stop.
Output: > 100 µM

Input: Specify TGI for `Cn1c(-c2nonc2N)nc2cnccc21` and stop.
Output: > 25 µM

Input: Specify TGI for `C[C@]12CC/C(=N\O)C=C1CC[C@@H]1[C@@H]2CC[C@]2(C)C(=N/O)/C(=C/c3cccnc3)C[C@@H]12` and stop.
Output: 73.4 µM

Input: Specify TGI for `COc1cc2c(cc1OC)C(=O)/C(=C/c1cc(C)c(O)c(C)c1)C2` and stop.
Output: > 100 µM

Input: Specify TGI for `Clc1cccc(NC=Nc2ccc(-c3nc4ccccc4s3)cc2)c1` and stop.
Output: 27.6 µM

Input: Specify TGI for O=C1CCC(NC(=O)c2ccccc2)C(=O)N1 (stereo unspecified) and stop.
Output: > 100 µM
